target: Human V2 Vasopressin Receptor (Homo sapiens); construct: expressed in transfected cells; host or cells: mouse fibroblast cell line LV-2; assay: Binding to Membranes of Mouse Fibroblast Cell Line (LV-2) Transfected with the cDNA Expressing the Human V2 Vasopressin Receptor; settings: LV-2 cell membranes, human V2; read-out: V2 IC50 (**)
Sequence (P30518 whole entry): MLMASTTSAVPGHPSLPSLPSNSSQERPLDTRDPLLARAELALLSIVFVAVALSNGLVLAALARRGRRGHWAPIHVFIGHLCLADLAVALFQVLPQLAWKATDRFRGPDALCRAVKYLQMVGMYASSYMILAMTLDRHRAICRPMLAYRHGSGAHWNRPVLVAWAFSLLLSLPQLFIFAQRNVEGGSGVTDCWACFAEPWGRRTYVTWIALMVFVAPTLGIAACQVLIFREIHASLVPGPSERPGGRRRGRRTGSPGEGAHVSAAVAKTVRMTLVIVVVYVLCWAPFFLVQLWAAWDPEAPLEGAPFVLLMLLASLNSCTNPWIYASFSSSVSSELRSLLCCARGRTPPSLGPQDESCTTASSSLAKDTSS
ENDPOINT: IC50 (nM)

The following compounds have reported results that may help.
Cc1c(F)cccc1C(=O)Nc1ccc(C(=O)N2Cc3cccn3Cc3ccccc32)cc1Cl [Example 546] = 73
O=C(Nc1ccc(C(=O)N2Cc3ccc(Cl)n3Cc3ccccc32)cc1)c1ccc(Cl)cc1Cl [Example 54] = 7
O=C(Nc1ccc(C(=O)N2Cc3cccn3Cc3ccccc32)c(Cl)c1)c1ccc(C(F)(F)F)cc1F [Example 696] = 65
O=C(Nc1ccc(C(=O)N2Cc3cccn3Cc3ccccc32)cc1)c1cc([N+](=O)[O-])ccc1Cl [Example 480] = 26
O=C(Nc1ccc(C(=O)N2Cc3ccnn3Cc3ccccc32)cc1)c1ccc(Cl)cc1Cl [Example 217] = 10

P: Cc1ccc(F)cc1C(=O)Nc1ccc(C(=O)N2Cc3ccc(CN(C)C)n3Cc3ccccc32)c(Cl)c1 [Example 668]
Q: Cc1cccc(C(=O)Nc2ccc(C(=O)N3Cc4cccn4Cc4ccccc43)c(Cl)c2)c1C [Example 525]
R: Cc1ccccc1CC(=O)Nc1ccc(C(=O)N2Cc3cccn3Cc3ccccc32)c(Cl)c1 [Example 697]
Write the entries in order, lowest recorded IC50 first. Present the labels in the sequence the task asks for. Q, R, P

---

target: oxytocin receptors (Rattus norvegicus); construct: The uteri are dissected out, cleaned of fat and connective tissues; from tissue; host or cells: uterus of DES-treated female Sprague-Dawley rats; experiment: Oxytocin Receptor Binding; conditions: dose 10 μM, [3H]oxytocin
Sequence (P70536 whole entry): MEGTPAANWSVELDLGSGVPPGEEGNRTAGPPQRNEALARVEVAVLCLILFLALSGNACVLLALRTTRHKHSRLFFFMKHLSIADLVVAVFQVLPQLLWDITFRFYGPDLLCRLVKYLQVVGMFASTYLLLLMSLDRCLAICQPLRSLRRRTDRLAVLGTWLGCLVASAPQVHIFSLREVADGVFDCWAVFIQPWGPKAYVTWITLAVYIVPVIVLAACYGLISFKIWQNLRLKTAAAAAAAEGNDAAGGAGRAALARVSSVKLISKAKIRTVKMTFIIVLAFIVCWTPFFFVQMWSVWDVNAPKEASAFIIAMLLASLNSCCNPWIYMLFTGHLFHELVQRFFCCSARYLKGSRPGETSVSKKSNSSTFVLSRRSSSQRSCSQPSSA
ENDPOINT: inhibition at 10 µM (%)

The following molecules have reported results that may help.
O=C(O)c1ccc(NC(=O)c2ccc(Cl)cc2Cl)cc1Cl = 11
O=C(Nc1ccc(C(=O)N2Cc3ccc(CN4CCOCC4)n3Cc3ccccc32)cc1)c1ccc(Cl)cc1Cl = 83
Cc1ccccc1C(=O)Nc1c(C)cc(C(=O)O)cc1C = 18
Cc1ccccc1C(=O)Nc1ccc(C(=O)N2Cc3cccn3Cc3ccccc32)cc1 = 90
Cc1ccccc1C(=O)Nc1ccc(C(=O)N2Cc3ccc(C(=O)C(F)(F)F)n3Cc3ccccc32)c(Cl)c1 = 49

A: Nc1ccc(C(=O)N2Cc3cccn3Cc3ccccc32)c(Cl)c1
B: Cc1ccc(F)cc1C(=O)Nc1ccc(C(=O)N2Cc3cccn3Cc3ccccc32)cc1
Record comparison, field inhibition at 10 µM: mark the lower of A and B . Answer = label. A

1: CCOC(=O)c1ccc2n1Cc1ccccc1N(C(=O)c1ccc(N)c(C)c1)C2
2: Cc1c(F)cccc1C(=O)Nc1ccc(C(=O)O)cc1Cl
3: O=C(Nc1ccc(C(=O)N2Cc3ccnn3Cc3ccccc32)cc1)c1ccc(Cl)cc1Cl
Rank entries according to their inhibition at 10 µM, from the largest number down. Present the labels in the sequence the task asks for. 3, 1, 2
(3: 87%, 1: 55%, 2: 10%)

I: O=C(c1ccc(NP(=O)(c2ccccc2)c2ccccc2)cc1)N1Cc2cccn2Cc2ccccc21
II: O=C(CN1CCOCC1)N(Cc1ccccc1Cl)c1ccc(C(=O)N2Cc3cccn3Cc3ccccc32)cc1
Record comparison, field inhibition at 10 µM: mark the lower of I and II . Answer = label. II
